Recorded EC50 values for a group of compounds are listed next.
# assay_overview: Luminescence Cell-Based Dose Confirmation HTS to Identify Inhibitors of Platelet Dense Granule Release. [Related pubchem assays: 1663 (Primary HTS), 1678 (Summary of Project)]
# Assay type: functional
Calls of active or inactive are those of the source. Rule as the data show it: actives have a measured EC50 and inactives only a lower limit.
attribute_measured: EC50

COC(=O)c1sccc1NC(=O)Nc1cccc(F)c1 | 4.6 µM (active)
Cc1cc(C)n(C(=O)c2ccc(S(=O)(=O)N3CCCC3)cc2)n1 | > 112 µM (not active)
COc1ccc(NC(=O)CN2C(=O)C(c3ccccc3)=NC23CCCCCC3)cc1 | > 112 µM (not active)
O=C1CCC(c2ccc(-n3ccnc3)cc2)=NN1 [IMAZODAN] | 1.36 µM (active)
Cc1ncoc1C(=O)Nc1ccc2c(c1)OCCO2 | 5.11 µM (active)
